Attribution: paper PMC9482650

# EXPERIMENTAL TARGET: DLG2_3, Q15700
# ASSAY INFO: holdup assay
# Parameters: key: below the threshold = too weak to quantify, mostly under pKd 3.1 to 4
# CONDITION LABEL: plain residues with an end cap or a label only (N-terminal biotin on a linker: ado-ado)
OBSERVATION TYPE: pKd
Could you respond with only the numeric value?

Record excerpt, results attached:
1) RHGSCVETSL [TMEM151B, Q8IW70] ... 4.19
2) KKMPSIESDV [GRIN2A, Q12879] ... 3.74
3) TASPAKETSF [SLC2A7, Q6PXP3] ... 3.88
4) PDGQCTVTEV [RNF146, Q9NTX7] ... 3.68
5) AKPSRISTVV [IQSEC2, Q5JU85] ... 4.34

As a next step, examine the binder that follows.
The binder listed as PRISRSQSEL [CCDC134, Q9H6E4] has a reported pKd of 3.63
